- Test system: TK-10
- assay: NCI tumour cell line growth inhibition, 48 h
The source made the active and inactive calls. Cut-off read from the data, not from the text of the source: active = GI50 up to about 1.1 µM and inactive = higher. Square brackets hold non-standard residues; d marks the D form. Peptide text beside a SMILES is read from it. * marks the point of attachment. Phe(4-NO2) = N[CH](Cc1ccc([N+](=O)[O-])cc1)C(=O)O; Cbz = O=C(OCc1ccccc1)*
Answer each item with its documented GI50.

Give the measured GI50 of COc1ccc(OC)c2c(=O)c3ccccc3[nH]c12 . > 100 µM (inactive)

// lookup GI50 for Cc1cn(C2CC(COCc3ccccc3)N(CCO[Si](C)(C)C(C)(C)C)O2)c(=O)[nH]c1=O (configuration not stated) 14.3 µM (inactive)

Recorded GI50 of COC(=O)C1=NC(=S)NC(c2ccccc2)C1c1nc2ccccc2s1 (configuration not stated) , please. > 100 µM (inactive)

Given COC(=O)[C@@H]1N2C(=S)N(c3ccccc3)C(=O)[C@H]2SC1(C)C , state its recorded GI50. > 100 µM (inactive)

Requested field: GI50. Item: C=C1C(O)C2OC(=O)C(=C)C2C(OC(=O)/C(C)=C/C)CC2(C)OC2C2OC12 (configuration not stated) 14.4 µM (inactive)

Entry CC(C)(C)OC(=O)N1CCc2[nH][nH]c(=O)c2C1 : reported GI50 = ? > 100 µM (inactive)

Would you mind telling me what GI50 value was observed for CC/C(C)=C1\CCC(CN(C)C)C1=O (configuration not stated) ? 17.3 µM (inactive)

Which value of GI50 has been reported for O=[PH](O)c1cc2c3ccccc3ccc2c2ccccc12 in the records? > 100 µM (inactive)

Please look up its GI50: NNC(=S)N/N=C(/C(=O)Nc1ccc(Cl)c(Cl)c1)C(C1OC(=O)c2ccccc21)[N+](=O)[O-] (configuration not stated) > 100 µM (inactive)

// returns reported GI50 for input N#CC(C#N)=C1NC(=O)C(c2ccccc2)C(=O)N1 (configuration not stated) > 100 µM (inactive)

I have this compound here, COc1ccccc1NC(=O)CC(=O)n1nc(C)c(/N=N/c2ccccc2Cl)c1C , and I need its recorded GI50. > 100 µM (inactive)

Can you look up the measured GI50 of CCOC(=O)CCC(NC(=O)OCc1ccccc1)C(=O)NC(CCC(=O)OCC)C(=O)NC(CCC(=O)OCC)C(=O)NC(CCC(=O)OCC)C(=O)NC(CCC(=O)OCC)C(=O)NC(Cc1ccc([N+](=O)[O-])cc1)C(=O)NC(CCC(=O)OCC)C(=O)NC(CCC(=O)OCC)C(=O)NC(CCC(=O)OCC)C(=O)NC(CCC(=O)OCC)C(=O)NC(CCC(=O)OCC)C(=O)OCC (configuration not stated) (Cbz-E(OEt)E(OEt)E(OEt)E(OEt)E(OEt)[Phe(4-NO2)]E(OEt)E(OEt)E(OEt)E(OEt)E(OEt)-OEt; configuration not given here) for me? > 50 µM (inactive)

---

- Test system: MDA-MB-435
- assay: NCI tumour cell line growth inhibition, 48 h
Calls of active or inactive are those of the source. Cut-off read from the data, not from the text of the source: active = GI50 up to about 1.1 µM and inactive = higher.
Record form. Attribute: GI50. Fill in for each entry.

Would you mind telling me what GI50 value was observed for CCCCCCCCCCCCCCCC(=O)OCC1CCCN2CCCCC12 (stereo not given) ? > 100 µM (inactive)

What value of GI50 has been recorded for this entry: COC(=O)/C=C(/C(=O)OC)c1c(C)c(C)c2c(C)cc(C)cc(C)c1-2 4.6 µM (inactive)

# get_value(readout='GI50', item= Oc1ccc(Cc2nccc3cc(O)c(O)cc23)cc1O ) 51.3 µM (inactive)

For the compound COc1cc(COC(=O)N(C)[C@@H](Cc2ccccc2)C(=O)O)c([N+](=O)[O-])cc1OC , what GI50 is on record? > 100 µM (inactive)

Any idea what its GI50 is? The compound is NS(=O)(=O)c1ccc2c(c1)OCCOCCOCCOCCO2 > 100 µM (inactive)
